Molecular target: LasR receptor (Pseudomonas aeruginosa, UniProt P25084)
Construct: expressed in transfected cells; host or cells: Escherichia coli carrying plasmid pSB1075
Sequence (P25084 whole entry): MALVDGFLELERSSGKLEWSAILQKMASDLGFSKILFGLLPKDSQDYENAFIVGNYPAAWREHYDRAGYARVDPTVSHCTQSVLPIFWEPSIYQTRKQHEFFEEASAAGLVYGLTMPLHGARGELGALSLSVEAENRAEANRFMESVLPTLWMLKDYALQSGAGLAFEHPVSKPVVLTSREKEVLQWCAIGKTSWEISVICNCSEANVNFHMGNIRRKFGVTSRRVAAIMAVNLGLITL
Assay: Activation of the LasR receptor on bacterial reporter strain E. coli pSB1075 (bioluminescence)
Format: cell-based
Details: bacterial reporter strain; read-out: EC50 of LasR receptor activation
Quantity name: EC50

Query: EC50; subject: CCCC(=O)N[C@H]1CCOC1=O [C4-HSL, reference compound]
> 1000 µM

###

Target: LasR receptor (Pseudomonas aeruginosa, UniProt P25084)
Construct: expressed in transfected cells; host or cells: Escherichia coli carrying plasmid pSB1075
Assay: Activation of the LasR receptor on bacterial reporter strain E. coli pSB1075 (bioluminescence)
Assay type: cell-based
Catalogue of pEC50 readings, one per entry.
FYI, pEC50 means -log10 of a concentration in mol per litre.

The cases that follow already have their pEC50 on record.
> print(dat)
                                   compound  value.observed
1    CCCCCCCCCC(=O)CC(=O)N[C@H]1CCCC[C@H]1O            3.70
2  CCCCCCCCCC(=O)CC(=O)NC1CCSC1=O (racemic)            6.90

Attention now shifts to the item below.
Query: pEC50; subject: `CCCCCCCCCC(=O)CC(=O)N[C@H]1CCCC[C@@H]1O`
6.78
